Target: ΔF508-CFTR (Homo sapiens, UniProt P13569, DEL508-508)
Construct: host or cells: CFBE41o-, doxycycline-inducible
Sequence (P13569 with tags, fused parts or gaps DEL508-508): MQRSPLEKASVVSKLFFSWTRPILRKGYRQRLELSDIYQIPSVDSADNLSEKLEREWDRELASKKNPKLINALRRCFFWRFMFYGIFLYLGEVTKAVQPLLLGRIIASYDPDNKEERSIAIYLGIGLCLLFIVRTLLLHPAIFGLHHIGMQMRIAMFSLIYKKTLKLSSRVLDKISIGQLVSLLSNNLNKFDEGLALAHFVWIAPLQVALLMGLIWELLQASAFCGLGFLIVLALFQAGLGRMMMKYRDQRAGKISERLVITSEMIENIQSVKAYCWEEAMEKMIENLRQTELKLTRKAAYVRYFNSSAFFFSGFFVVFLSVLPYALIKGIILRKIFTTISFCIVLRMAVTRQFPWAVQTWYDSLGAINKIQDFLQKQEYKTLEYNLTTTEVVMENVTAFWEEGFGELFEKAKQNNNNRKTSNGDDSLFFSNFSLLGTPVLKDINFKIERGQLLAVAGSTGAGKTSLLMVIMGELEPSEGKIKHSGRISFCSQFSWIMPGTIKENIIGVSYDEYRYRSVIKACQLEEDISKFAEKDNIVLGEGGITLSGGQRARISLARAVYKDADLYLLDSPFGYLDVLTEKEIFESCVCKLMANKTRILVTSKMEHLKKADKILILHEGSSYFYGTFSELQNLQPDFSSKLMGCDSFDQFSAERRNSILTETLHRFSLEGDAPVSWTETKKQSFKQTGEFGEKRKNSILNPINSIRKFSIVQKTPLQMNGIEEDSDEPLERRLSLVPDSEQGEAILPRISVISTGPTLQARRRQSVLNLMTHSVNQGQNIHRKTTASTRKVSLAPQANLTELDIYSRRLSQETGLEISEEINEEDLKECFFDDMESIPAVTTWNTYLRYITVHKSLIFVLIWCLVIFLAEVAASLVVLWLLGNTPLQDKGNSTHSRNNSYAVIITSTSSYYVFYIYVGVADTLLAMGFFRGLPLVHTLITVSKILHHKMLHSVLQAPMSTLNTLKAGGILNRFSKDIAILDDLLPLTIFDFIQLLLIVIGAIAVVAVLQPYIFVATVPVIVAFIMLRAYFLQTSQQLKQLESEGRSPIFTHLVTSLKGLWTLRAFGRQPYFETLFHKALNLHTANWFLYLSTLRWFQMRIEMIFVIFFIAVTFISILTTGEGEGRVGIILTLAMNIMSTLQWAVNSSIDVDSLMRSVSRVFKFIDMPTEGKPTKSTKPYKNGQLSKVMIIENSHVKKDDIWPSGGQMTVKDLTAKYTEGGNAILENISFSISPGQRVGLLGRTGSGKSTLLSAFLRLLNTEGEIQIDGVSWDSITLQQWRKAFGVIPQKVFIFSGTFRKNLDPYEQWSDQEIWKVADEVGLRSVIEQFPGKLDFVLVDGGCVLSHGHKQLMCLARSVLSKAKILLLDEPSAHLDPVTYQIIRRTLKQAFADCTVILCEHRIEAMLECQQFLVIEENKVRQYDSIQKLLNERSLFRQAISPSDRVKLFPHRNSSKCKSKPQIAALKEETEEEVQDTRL
Assay: CFTR cell surface levels using HRP-tagged ΔF508-CFTR expressing CFBE cells, in the presence of a co-corrector
Assay type: cell-based
Conditions: HRP-tagged ΔF508-CFTR expressing CFBE cells, in the presence of 3 μM co-corrector
Below: a set of entries, each annotated with reported % Activation.
Write down the numeric answer in % and omit the unit.

The following molecules have reported results that may help.
{"compoundSmiles": "CN(C[C@@H]1CCN(c2cc(C(=O)O)nc3c2c(C2CCC2)nn3-c2ccccc2)C1)C(=O)OC(C)(C)C", "% Activation (%)": 323.85}
{"compoundSmiles": "O=C(O)c1cc(OCC2CC(F)(F)C2)c2c(C3CCC3)nn(-c3ccccc3)c2n1", "% Activation (%)": 334.3}
{"compoundSmiles": "COC1CCN(c2cc(C(=O)O)nc3c2c(C(C)C)nn3-c2ccnc(N3CCCC3)c2)CC1", "% Activation (%)": 387.2}
{"compoundSmiles": "CCC1(COc2cc(C(=O)O)nc3c2c(C2CCC2)nn3-c2ccccc2)COC1", "% Activation (%)": 377.8}
{"compoundSmiles": "Cc1nn(-c2ccccc2)c2nc(C(=O)O)cc(OCC3CCCCC3)c12", "% Activation (%)": 253.1}
{"compoundSmiles": "CO[C@H]1CCC[C@@H](n2nc(C(C)C)c3c(-c4ccc(N5CCOCC5)cc4)cc(C(=O)O)nc32)C1", "% Activation (%)": 261.5}
{"compoundSmiles": "CCOCCN1CCN(C2CCN(c3cc(C(=O)O)nc4c3c(C3CCC3)nn4-c3ccccc3)CC2)CC1", "% Activation (%)": 530.4}

What value of % Activation on ΔF508-CFTR (Homo sapiens, UniProt P13569, DEL508-508) does CC(C)c1nn(-c2ccc(F)cc2)c2nc(C(=O)O)cc(OCC3(C)COC3)c12 have?
338.1

###

Target: ΔF508-CFTR (Homo sapiens, UniProt P13569, DEL508-508)
Construct: host or cells: CFBE41o-, doxycycline-inducible
Assay: CFTR cell surface levels using HRP-tagged ΔF508-CFTR expressing CFBE cells, in the presence of a co-corrector
Assay type: cell-based
Settings: HRP-tagged ΔF508-CFTR expressing CFBE cells, in the presence of 3 μM co-corrector; read-out: EC50
Measured pEC50 accompanies every entry in the list below.
Lab note: report pEC50 as minus log10 of the concentration in molar units, number only.

Field: example entries. Status: answers known.
{"compound": "COCCN(CCOC)c1ccc(-c2cc(C(=O)O)nc3c2c(C(C)C)nn3C2CCCCC2)cn1", "pEC50": 6.13}
{"compound": "CC1CN(C2CCN(c3cc(C(=O)O)nc4c3c(C3CCC3)nn4-c3ccccc3)CC2)CC(C)O1 (centres unmarked)", "pEC50": 6.61}
{"compound": "Cc1nn(-c2ccccc2)c2nc(C(=O)O)cc(N3CCCN(S(C)(=O)=O)CC3)c12", "pEC50": 5.48}
{"compound": "O=C(O)c1cc(N2CCC(CCN3CCOCC3)CC2)c2c(C3CCC3)nn(-c3ccc(F)cc3)c2n1", "pEC50": 7.05}
{"compound": "Cc1nn(-c2ccccc2)c2nc(C(=O)O)cc(N3CCCOCC3)c12", "pEC50": 5.38}

What value of pEC50 has been reported for the following compound? CC(C)Oc1cccc(-n2nc(C3CCC3)c3c(N4CCC(N5CCOCC5)CC4)cc(C(=O)O)nc32)n1
6.86

// lookup pEC50 for O=C(O)c1cc(N2CCC(CN3CCCC3)CC2)c2c(C3CCC3)nn(-c3ccc(F)cc3)c2n1
6.48

State the recorded pEC50 for this entry: CCOCCN1CCC(N2CCN(c3cc(C(=O)O)nc4c3c(C3CCC3)nn4-c3ccccc3)CC2)CC1
6.51
